Assay: Absorption spectra obtained in toluene at room temperature
Type: physicochemical
Conditions: Table 3; zinc chlorins in toluene at room temperature
Recorded endpoint: λmax (nm), Qy
Lab book: enter the figure in nm, no units written.

>  <Compound>
C=Cc1cc2[n]3c1C=C1C=CC(=N1)C(c1c(C)cc(C)cc1C)=c1ccc([n]1[Zn]3)=CC1=NC(=C2)C(C)(C)C1

>  <Output unit>
nm

>  <λmax (nm), Qy>
621

$$$$
>  <Compound>
Cc1cc(C)c(C2=c3cc(C#C[Si](C(C)C)(C(C)C)C(C)C)c4[n]3[Zn][n]3c(ccc3C=C3N=C(C=4)CC3(C)C)C=C3C=CC2=N3)c(C)c1 [ZnC-M^10E^13]

>  <Output unit>
nm

>  <λmax (nm), Qy>
626

$$$$
>  <Compound>
CC(C)[Si](C#Cc1cc2[n]3c1C=C1CC(C)(C)C(=N1)C=c1cc(C#C[Si](C(C)C)(C(C)C)C(C)C)c([n]1[Zn]3)=CC1=NC(=C2)C=C1)(C(C)C)C(C)C

>  <Output unit>
nm

>  <λmax (nm), Qy>
645

$$$$

From here, focus on the item given below.
Sure, the documented λmax (nm), Qy for CC(=O)c1cc2[n]3c1C=C1CC(C)(C)C(=N1)C=c1cc(C#C[Si](C(C)C)(C(C)C)C(C)C)c([n]1[Zn]3)=CC1=NC(=C2)C=C1 is 655
